System name: Nuclear receptor subfamily 1 group I member 2 (Homo sapiens) (UniProt O75469)
Sequence (O75469 whole entry, looked up): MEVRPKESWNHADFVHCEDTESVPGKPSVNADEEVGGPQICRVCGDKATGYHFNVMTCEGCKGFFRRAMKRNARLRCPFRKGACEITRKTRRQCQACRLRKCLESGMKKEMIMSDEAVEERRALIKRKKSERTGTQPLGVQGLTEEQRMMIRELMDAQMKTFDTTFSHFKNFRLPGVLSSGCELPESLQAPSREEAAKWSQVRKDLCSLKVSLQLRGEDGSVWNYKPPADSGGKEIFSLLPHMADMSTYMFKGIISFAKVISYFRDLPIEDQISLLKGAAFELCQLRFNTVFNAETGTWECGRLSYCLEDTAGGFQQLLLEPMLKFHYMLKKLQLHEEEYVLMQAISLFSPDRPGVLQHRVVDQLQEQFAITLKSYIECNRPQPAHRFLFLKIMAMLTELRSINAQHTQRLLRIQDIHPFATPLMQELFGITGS
Test protocol: Human pregnane X receptor (PXR) small molecule agonists, qHTS assay (AID 1346982); note: nearly all actives have a fitted effect of over 35% in size
Recorded conditions: PXR-Luc HepG2, CYP3A4 luciferase reporter, 24 h; series mostly up to 92.4 µM
Records with an inconclusive call do not appear. Active and inactive are the calls of the source. Calls come from the whole dose curve; as a rule, active = well fitted activation curve with a large enough effect in the repeat runs; inconclusive = weak or mixed curves; inactive = no such curve, though single readings can be large or run the other way.
Outcomes: 1 (active), 0 (inactive)

Molecule | System name | Label class
O=S(=O)(NS(=O)(=O)C(F)(F)F)C(F)(F)F | Nuclear receptor subfamily 1 group I member 2 (Homo sapiens) (UniProt O75469) | 1
O=c1[nH]c2cc(Cl)ccc2n1C1CCNCC1 | Nuclear receptor subfamily 1 group I member 2 (Homo sapiens) (UniProt O75469) | 0
Nc1ccc(N=Nc2ccccc2)cc1 | Nuclear receptor subfamily 1 group I member 2 (Homo sapiens) (UniProt O75469) | 1
CCNc1nc(NC(C)C(C)C)nc(SC)n1 (centres undefined) | Nuclear receptor subfamily 1 group I member 2 (Homo sapiens) (UniProt O75469) | 1
Oc1cccc(Cl)c1Cl | Nuclear receptor subfamily 1 group I member 2 (Homo sapiens) (UniProt O75469) | 0
CC(O)C(=O)[O][Hg][c]1ccccc1 (centres undefined) | Nuclear receptor subfamily 1 group I member 2 (Homo sapiens) (UniProt O75469) | 0
O=C(O)CCCCCCNC1c2ccccc2CCc2ccccc21 | Nuclear receptor subfamily 1 group I member 2 (Homo sapiens) (UniProt O75469) | 0
CCCCN(CCCC)C(=S)S | Nuclear receptor subfamily 1 group I member 2 (Homo sapiens) (UniProt O75469) | 1
N#CSCc1ccccc1 | Nuclear receptor subfamily 1 group I member 2 (Homo sapiens) (UniProt O75469) | 1
COc1nc(C)nc(NC(=O)NS(=O)(=O)c2ccccc2Cl)n1 | Nuclear receptor subfamily 1 group I member 2 (Homo sapiens) (UniProt O75469) | 0
C#CCC1=C(C)C(OC(=O)C2C(C=C(C)C)C2(C)C)CC1=O (centres undefined) | Nuclear receptor subfamily 1 group I member 2 (Homo sapiens) (UniProt O75469) | 1
NC(=O)C(Cl)Cl | Nuclear receptor subfamily 1 group I member 2 (Homo sapiens) (UniProt O75469) | 0
FC(F)C(F)(F)OCC(Cn1cncn1)c1ccc(Cl)cc1Cl (centres undefined) | Nuclear receptor subfamily 1 group I member 2 (Homo sapiens) (UniProt O75469) | 1
CN(C)C(=S)SSC(=S)N(C)C | Nuclear receptor subfamily 1 group I member 2 (Homo sapiens) (UniProt O75469) | 0
